The following molecules are shown together with reported normalized growth values.
Test: chemical genetic growth profiling, strain panel (AID 1159580);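 also: tested at 20 µM; growth read once vehicle control cultures reached saturation at 30 °C; 1 = growth at the plate median or of vehicle wells; lower values mean less growth of the strain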
Conditions: S. cerevisiae deletion strains, growth OD, locus YMR219W, strain ESC1, active compounds read low
The whole screen tested about 5,500 compounds, of which about 2,000 (36%) were called active. About 18% were inconclusive and are not listed. This is one part of the list.
observed.property: normalized growth

1. S=c1[nH]nc(-c2ccco2)n1-c1ccc2c(c1)OCCO2: 0.991
2. O=C(CSc1nnc(-c2ccco2)n1-c1ccc2c(c1)OCCO2)c1cccc(F)c1: 0.988
3. CSC(=Nc1ccc(C(C)C)cc1)NC#N: 0.97

---

Assay: chemical genetic growth profiling, strain panel (AID 1159580);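 also: tested at 20 µM; growth read once vehicle control cultures reached saturation at 30 °C; 1 = growth at the plate median or of vehicle wells; lower values mean less growth of the strain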
Conditions: S. cerevisiae deletion strains, growth OD, locus YNL207W, strain RIO2, active compounds read low
Screen size: about 5,500 compounds; about 2,000 (36%) were called active. Not shown: some 18% with an inconclusive outcome. The list shows a part of the results.
The following compounds are shown together with reported normalized growth values.
observed.property: normalized growth

1) Cc1c(NCN2C(=O)CCC2=O)cc2c(c1[N+](=O)[O-])C(C)(C)CC2(C)C: 0.965
2) C(=NC(N=Cc1ccccc1)c1ccccc1)c1ccccc1 (stereo not given): 0.983
3) CCCCCc1ccc(-c2nc(SCC(C)=O)n[nH]2)cc1: 0.947
4) CN(NC(=S)Nc1cc(Cl)ccc1Cl)c1ccc(C(F)(F)F)cc1[N+](=O)[O-]: 0.976
5) CSc1nc(Sc2n[nH]c(-c3ccccc3)n2)cc(Sc2n[nH]c(-c3ccccc3)n2)n1: 1.01
